Measured AC50, listed per entry.
- TARGET_SYSTEM: Replicative DNA helicase DnaB (Mycobacterium tuberculosis)
- Sequence (P9WMR3 1-399, added parts left off): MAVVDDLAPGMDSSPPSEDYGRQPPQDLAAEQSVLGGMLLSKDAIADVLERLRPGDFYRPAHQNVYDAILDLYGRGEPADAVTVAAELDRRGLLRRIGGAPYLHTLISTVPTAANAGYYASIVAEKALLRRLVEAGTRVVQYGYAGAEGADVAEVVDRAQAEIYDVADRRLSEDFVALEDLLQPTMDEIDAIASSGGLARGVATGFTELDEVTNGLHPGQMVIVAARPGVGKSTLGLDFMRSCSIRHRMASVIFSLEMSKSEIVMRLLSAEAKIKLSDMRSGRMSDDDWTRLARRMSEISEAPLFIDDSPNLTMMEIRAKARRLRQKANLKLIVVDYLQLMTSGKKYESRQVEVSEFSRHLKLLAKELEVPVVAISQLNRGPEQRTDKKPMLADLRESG
- ASSAY_COMMENT: DnaB intein splicing inhibitors, dose response, biochemical, cell-free fluorescence (AID 449749)
- Assay type: functional
Calls of active or inactive are those of the source.

1. CC(=O)c1cccc2c1N=C(c1[nH]c3ccccc3c1O)C2=O : 3.1 µM (active)
2. O=C(CCl)Nc1cn(-c2ccccc2)nc1-c1ccc(F)cc1 : 2.77 µM (active)
3. Cc1[nH]n(-c2ccccc2)c(=O)c1C(c1ccc([N+](=O)[O-])cc1)c1c(C)[nH]n(-c2ccccc2)c1=O : 1.24 µM (active)

Give the value of AC50 reported for the following: COC(=O)Nc1nn(-c2ccc(OC)cc2)c(=O)c(C#N)c1C
25.9 µM (active)

Give the value of AC50 reported for the following: Cc1onc(-c2ccccc2)c1C(=O)n1nnc2ccccc21
7.85 µM (active)

Give the value of AC50 reported for the following: c1ccc(Sc2ncnc3ccccc23)cc1
21.9 µM (active)

Give the value of AC50 reported for the following: COc1ccc(S(=O)(=O)Nc2ccc(O)c3ccccc23)cc1
0.0824 µM (active)

Give the value of AC50 reported for the following: O=C(NCc1ccc2c(c1)OCO2)c1nc(S(=O)(=O)Cc2ccccc2)ncc1Cl
2.27 µM (active)

Give the value of AC50 reported for the following: CC(C)(C)c1cc(NC(=O)CCl)n(-c2ccccc2)n1
65.1 µM (active)

Give the value of AC50 reported for the following: O=C(O)c1ccc(N2C(=O)/C(=C/c3ccc(-c4ccc([N+](=O)[O-])cc4)o3)C=C2c2ccccc2)cc1
56.7 µM (active)

Give the value of AC50 reported for the following: CCC1CCCCN1S(=O)(=O)c1ccc(NC(=O)c2nc(S(C)(=O)=O)ncc2Cl)cc1 (stereo unspecified)
1.43 µM (active)

Give the value of AC50 reported for the following: COc1ccc(N(C(=O)CCl)C(C(=O)NC2CCCCC2)c2cccnc2)cc1 (stereo unspecified)
7.67 µM (active)

Give the value of AC50 reported for the following: N=C(Cc1cccc2ccccc12)NOC(=O)c1cccs1
5.96 µM (active)

Give the value of AC50 reported for the following: CC(C)CC(=O)/C(=C\c1ccc(Cl)cc1Cl)n1cncn1
11.8 µM (active)

Give the value of AC50 reported for the following: C/C(CC(=O)NCc1ccco1)=N\NC(=O)c1ccc([N+](=O)[O-])cc1Cl
10.2 µM (active)

Give the value of AC50 reported for the following: COC(=O)N/N=C\c1ccc(OC(=O)c2ccco2)cc1
44.6 µM (active)

* * *

- TARGET_SYSTEM: Zinc finger protein mex-5 (Caenorhabditis elegans, UniProt Q9XUB2)
- Sequence (Q9XUB2 whole entry): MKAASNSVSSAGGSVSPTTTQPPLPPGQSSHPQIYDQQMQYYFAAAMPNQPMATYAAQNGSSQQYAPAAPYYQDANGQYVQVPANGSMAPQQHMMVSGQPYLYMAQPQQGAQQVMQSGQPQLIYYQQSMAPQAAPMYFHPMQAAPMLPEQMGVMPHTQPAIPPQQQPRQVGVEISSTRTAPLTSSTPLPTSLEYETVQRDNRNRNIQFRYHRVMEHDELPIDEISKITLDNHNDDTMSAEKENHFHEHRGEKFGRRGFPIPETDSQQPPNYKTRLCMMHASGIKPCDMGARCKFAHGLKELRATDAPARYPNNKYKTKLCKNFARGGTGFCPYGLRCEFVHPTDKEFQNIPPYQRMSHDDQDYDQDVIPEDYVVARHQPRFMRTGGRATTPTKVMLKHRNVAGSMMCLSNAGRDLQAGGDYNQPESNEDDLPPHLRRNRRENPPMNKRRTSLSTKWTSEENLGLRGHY
- ASSAY_COMMENT: MEX-5/TCR-2 RNA interaction inhibitors, dose response, biochemical, C. elegans, fluorescence polarization (AID 1960)
Active and inactive are the calls of the source.
ASSAY_METRIC: EC50

// worked examples, EC50 included
1. CC(NC(=O)COc1ccccc1)C(=O)OCC(=O)c1cc2ccccc2o1 (centres undefined) : > 300 µM (not active)
2. O=S(=O)([N-]c1nc2ccccc2nc1-[n+]1ccc(CCCc2ccccc2)cc1)c1cccs1 : 34 µM (active)
3. CC(C)OCC(O)CN1CCN(CCN2C(=O)c3cccc4cccc(c34)C2=O)CC1 (centres undefined) : > 300 µM (not active)

Consider now this further compound.
Give the value of EC50 reported for the following: CC1(OC(=O)CCc2ccccc2)C(=O)C=C2C=C(C3CC3)OC=C2C1=O (centres undefined)
30.4 µM (active)

* * *

- TARGET_SYSTEM: Induced myeloid leukemia cell differentiation protein Mcl-1 (Homo sapiens, UniProt Q07820)
- Sequence (Q07820 whole entry): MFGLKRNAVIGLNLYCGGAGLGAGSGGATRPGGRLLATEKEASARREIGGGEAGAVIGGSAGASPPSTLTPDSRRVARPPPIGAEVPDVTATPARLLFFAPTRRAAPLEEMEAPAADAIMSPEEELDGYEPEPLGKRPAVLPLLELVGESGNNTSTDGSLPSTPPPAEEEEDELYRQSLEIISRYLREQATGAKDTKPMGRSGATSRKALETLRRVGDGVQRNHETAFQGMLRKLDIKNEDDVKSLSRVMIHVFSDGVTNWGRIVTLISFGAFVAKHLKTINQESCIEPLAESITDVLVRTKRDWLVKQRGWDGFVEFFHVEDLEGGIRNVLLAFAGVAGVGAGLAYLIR
- Type: functional
Active and inactive are the calls of the source.
ASSAY_METRIC: IC50

// worked examples, IC50 included
1) O=C(O)c1ccc(N2C(=O)/C(=C/c3ccc(-c4ccc([N+](=O)[O-])cc4)o3)C=C2c2ccccc2)cc1 : 0.417 µM (active)
2) CCOC(=O)CSc1nc(N)c(C(=O)Nc2ccc(N(C)C)cc2)s1 : < 0.4 µM (active)
3) CN1CCc2cccc3c2[C@@H]1Cc1ccc(O)c(O)c1-3 : < 0.4 µM (active)
4) C=C(C)C(=O)Nc1cccc(C2=NOC3(C2)C[C@@H](C(N)=O)N(C(=O)C(=C)C)C3)c1 (some centres undefined) : 3.08 µM (not active)
5) CCCCNC(=O)c1ccc2nc(-c3ccco3)c(-c3ccco3)nc2c1 : 6.65 µM (active)
6) CC(=O)NC1=C(NC2CCS(=O)(=O)C2)C(=O)c2ccccc2C1=O (centres undefined) : 2.54 µM (active)
7) CCc1c(C)nc2ccc(OC)cc2c1S : 0.628 µM (active)
8) CCOC(=O)c1cc(C(O)(C(=O)OC)C(F)(F)F)c(/N=C/N(C)C)o1 (centres undefined) : < 0.4 µM (not active)

Consider now this further molecule.
Give the value of IC50 reported for the following: COc1cnn(-c2ccc(Br)cc2)c(=O)c1SCc1ccccc1
3.25 µM (not active)

* * *

- TARGET_SYSTEM: FAD-linked sulfhydryl oxidase ALR (Homo sapiens, UniProt P55789)
- Sequence (P55789 whole entry): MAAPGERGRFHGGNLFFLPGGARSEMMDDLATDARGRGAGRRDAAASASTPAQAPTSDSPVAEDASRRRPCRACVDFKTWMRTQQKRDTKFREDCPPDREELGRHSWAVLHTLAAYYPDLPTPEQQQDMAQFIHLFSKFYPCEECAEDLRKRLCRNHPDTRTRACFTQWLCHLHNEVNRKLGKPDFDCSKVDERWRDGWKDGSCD
- ASSAY_COMMENT: inhibitors of human ALR sulfhydryl oxidase, dose response, biochemical, H2O2 detection, luminescence, cherry-pick (AID 493248)
Active and inactive are the calls of the source.
ASSAY_METRIC: AC50

1) Oc1ccc(/C=N/Nc2ncnc3c2ncn3Cc2ccccc2)cc1O : 2.19 µM (active)

Report its AC50 with FAD-linked sulfhydryl oxidase ALR (Homo sapiens, UniProt P55789) as the test system: CN(C)c1ccc(/C=N/NC(=O)CNC(=O)c2ccncc2)cc1
3.61 µM (active)

Report its AC50 with FAD-linked sulfhydryl oxidase ALR (Homo sapiens, UniProt P55789) as the test system: CC(=O)Nc1ccc(N2C(=O)CSC2c2ccc(F)cc2)cc1 (stereo not drawn)
< 0.005 µM (active)

Report its AC50 with FAD-linked sulfhydryl oxidase ALR (Homo sapiens, UniProt P55789) as the test system: O=C1NC(=O)N(c2ccc(C(=O)O)cc2)C(=O)/C1=C/c1c[nH]c2ccccc12
0.177 µM (active)

Report its AC50 with FAD-linked sulfhydryl oxidase ALR (Homo sapiens, UniProt P55789) as the test system: CC(C(=O)NC1C=CS(=O)(=O)C1)N1C(=O)/C(=C\c2ccccc2)SC1=S (stereo not drawn)
0.359 µM (active)

Report its AC50 with FAD-linked sulfhydryl oxidase ALR (Homo sapiens, UniProt P55789) as the test system: CC[C@@H]1[C@H]2CCCC(=O)N3CC[C@@H](C[C@@H]1Nc1ccccc1)[C@@H]23
0.008 µM (active)

Report its AC50 with FAD-linked sulfhydryl oxidase ALR (Homo sapiens, UniProt P55789) as the test system: CCN(CC)c1ccc(NS(=O)(=O)c2ccc(OC)cc2)cc1
5.11 µM (active)

Report its AC50 with FAD-linked sulfhydryl oxidase ALR (Homo sapiens, UniProt P55789) as the test system: CCN(CC)c1ccc(NS(=O)(=O)c2ccc3c(c2)oc(=O)n3C)c(C)c1
0.409 µM (active)

Report its AC50 with FAD-linked sulfhydryl oxidase ALR (Homo sapiens, UniProt P55789) as the test system: CCS(=O)(=O)N1CCN=C1SCc1cccnc1
2.06 µM (active)

Report its AC50 with FAD-linked sulfhydryl oxidase ALR (Homo sapiens, UniProt P55789) as the test system: C[n+]1c2n(c3ccccc31)N=C(c1ccccc1)CS2
1.14 µM (active)

Report its AC50 with FAD-linked sulfhydryl oxidase ALR (Homo sapiens, UniProt P55789) as the test system: O=C(NCc1ccc2c(c1)OCO2)c1nc(S(=O)(=O)Cc2ccccc2)ncc1Cl
0.505 µM (active)

Report its AC50 with FAD-linked sulfhydryl oxidase ALR (Homo sapiens, UniProt P55789) as the test system: CC(=O)Nc1sc(NC(=O)c2ccccc2)nc1-c1cccs1
3.14 µM (active)

Report its AC50 with FAD-linked sulfhydryl oxidase ALR (Homo sapiens, UniProt P55789) as the test system: COc1ccc(S(=O)(=O)Nc2ccc(O)c3ccccc23)cc1
18.4 µM (active)
